Test: qHTS for Inhibitors of human tyrosyl-DNA phosphodiesterase 1 (TDP1): qHTS in cells in absence of CPT; note: nearly all actives have a fitted effect of over 55% in size
Settings: DT40 Tdp1-/- hTDP1 cells, no CPT, ATP luminescence, 48 h
Method: Human tyrosyl-DNA phosphodiesterase 1 (TDP1) is a novel repair gene, and we propose to use it as a new target for anticancer drug development. […] For the primary screen, Tdp1-/-;hTDP1 cells will be exposed to small molecules in the presence or absence of CPT, and their growth kinetics will be evaluated after 48 hours by measuring ATP activity. […] The hit compounds will then be evaluated in the presence or absence of CPT using Tdp1-/- cells. […]
In all, about 420,000 compounds went through this assay and about 64,000 (15%) were called active. Not shown: some 27% with an inconclusive outcome. Calls come from the whole dose curve; as a rule, active = well fitted inhibition curve with a large enough effect; inconclusive = small, poorly fitted or top-dose-only effect; inactive = flat fitted curve, though single readings scatter. A selection follows.
Pick one and only one: T = active, F = inactive

Cc1ccc(-c2nnc(CN3CCN(C)CC3)o2)cc1    F
COc1cccc(N(CC(=O)N2CCc3ccccc3C2)S(C)(=O)=O)c1    F
Cc1ccc(/C=N/NC(=S)NC2CCCCC2)o1    T
NC(=O)c1nsc(C(=O)N(CCCN2CCOCC2)C(C(=O)NC2CCCCC2)c2ccc(Cl)cc2)c1N (centres undefined)    F

Dear all, I need the recorded test outcome for COc1ccc(-c2cc(=O)oc3cc(OCC(=O)N[C@@H](Cc4c[nH]c5ccccc45)C(=O)O)ccc23)cc1 , thank you.
F

Dear all, I need the recorded test outcome for CC(C)N(C(=O)COC(=O)c1ccccc1C(=O)N1CCN(c2ccc(F)cc2)CC1)C(C)C , thank you.
F

Dear all, I need the recorded test outcome for Cc1cc2oc(=O)cc(-c3ccccc3)c2c(C)c1-c1ccc(OC(F)(F)F)cc1 , thank you.
T

Dear all, I need the recorded test outcome for COC(=O)c1c(C(=O)OC)c(-c2cccc(C)c2)n2c1CS(=O)C2 (centres undefined) , thank you.
F

Dear all, I need the recorded test outcome for CCCC/C(C)=N/NC(=O)NC1CCCCC1 , thank you.
F

Dear all, I need the recorded test outcome for CC(=O)N1c2ccccc2CC1C(=O)N1CCN(c2ccc(F)cc2)CC1 (centres undefined) , thank you.
F

Dear all, I need the recorded test outcome for CCC(C(=O)NCCC(C)C)N(Cc1ccccc1Cl)C(=O)c1snc(C(N)=O)c1N (centres undefined) , thank you.
F

Dear all, I need the recorded test outcome for Cc1ccc(S(=O)(=O)N(CC(=O)N2CCc3ccccc3C2)c2cccc(Cl)c2)cc1 , thank you.
T
